Taken from patent US8975235B2.

# ASSAY_SYSTEM: Human LPA1 (Homo sapiens)
# Sequence (Q92633 whole entry): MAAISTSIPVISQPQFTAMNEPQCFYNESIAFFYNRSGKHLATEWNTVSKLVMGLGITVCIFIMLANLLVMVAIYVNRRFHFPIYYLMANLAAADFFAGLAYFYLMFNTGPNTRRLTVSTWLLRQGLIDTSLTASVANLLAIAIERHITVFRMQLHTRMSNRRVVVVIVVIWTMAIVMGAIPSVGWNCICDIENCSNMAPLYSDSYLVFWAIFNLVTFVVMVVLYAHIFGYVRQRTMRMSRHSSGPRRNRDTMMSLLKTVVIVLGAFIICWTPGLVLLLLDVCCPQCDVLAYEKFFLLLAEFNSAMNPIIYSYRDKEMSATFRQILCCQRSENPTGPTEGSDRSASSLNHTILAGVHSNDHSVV
# RUN_DESCRIPTION: Beta-Arrestin based assay for human LPA1R antagonists (PathHunter)
# REPORTED_CONDITIONS: CHO cells stably expressing ProLink tagged human LPA1R; agonist LPA 0.5 micromolar
pEC50: −log10 of the molar value.
EXPERIMENTAL_READOUT: pEC50

{"MOLECULE": "CCOC(=O)Cc1ccc(-c2ccc(-c3onc(C)c3NS(=O)(=O)Cc3ccccc3)cc2)cc1", "EXPERIMENTAL_READOUT": "pEC50", "RECORDED_RESULT": "< 6.30"}
{"MOLECULE": "Cc1nsc(-c2ccc(-c3ccc(C4(C(=O)O)CC4)cc3)cc2F)c1NC(=O)O[C@H](C)c1ccccc1Cl", "EXPERIMENTAL_READOUT": "pEC50", "RECORDED_RESULT": "> 7.30"}
{"MOLECULE": "C[C@@H](OC(=O)Nc1scnc1-c1ccc(-c2ccc(C3(C(=O)O)CC3)cc2)cc1)c1ccccc1Cl", "EXPERIMENTAL_READOUT": "pEC50", "RECORDED_RESULT": "> 7.30"}
{"MOLECULE": "C[C@@H](OC(=O)Nc1c(-c2ccc(-c3ccc(C4(C(=O)O)CC4)cc3)cc2)oc2cnccc12)c1ccccc1", "EXPERIMENTAL_READOUT": "pEC50", "RECORDED_RESULT": "> 7.30"}
{"MOLECULE": "C[C@@H](OC(=O)Nc1ocnc1-c1ccc(-c2ccc(C3(C(=O)O)CC3)cc2)cc1)c1ccccc1Cl", "EXPERIMENTAL_READOUT": "pEC50", "RECORDED_RESULT": "> 7.30"}
{"MOLECULE": "O=C(O)Cc1ccc(C2CCN(C(=O)[C@@H](Cc3ccccc3)NC(=O)OCc3ccccc3)CC2)cc1", "EXPERIMENTAL_READOUT": "pEC50", "RECORDED_RESULT": "< 6.30"}
{"MOLECULE": "Cc1nsc(-c2ccc(-c3ccc(C4(C(=O)O)CC4)cc3)cc2)c1NC(=O)OCc1cccc(F)c1", "EXPERIMENTAL_READOUT": "pEC50", "RECORDED_RESULT": "> 7.30"}
{"MOLECULE": "Cc1nsc(-c2cc(Cl)c(-c3ccc(C4(C(=O)O)CC4)cc3)cc2F)c1NC(=O)O[C@H](C)c1ccccc1Cl", "EXPERIMENTAL_READOUT": "pEC50", "RECORDED_RESULT": "> 7.30"}
{"MOLECULE": "Cc1nsc(-c2ccc(-c3ccc(C4(C(=O)O)CC4)cc3)cc2)c1NC(=O)O[C@@H](C)C1=C(Cl)CCC1 (single isomer, unassigned)", "EXPERIMENTAL_READOUT": "pEC50", "RECORDED_RESULT": "< 6.30"}
{"MOLECULE": "Cc1nsc(-c2ccc(-c3ccc(C(C(=O)O)c4ccccc4)cc3)cc2)c1NC(=O)O[C@H](C)c1ccccc1Cl (single isomer, unassigned) [Compound 71]", "EXPERIMENTAL_READOUT": "pEC50", "RECORDED_RESULT": "6.30 to 7.30"}
{"MOLECULE": "Cc1nsc(-c2ccc(-c3ccc(C4(C(=O)O)CCOCC4)cc3)cc2)c1NC(=O)O[C@H](C)c1ccccc1", "EXPERIMENTAL_READOUT": "pEC50", "RECORDED_RESULT": "6.30 to 7.30"}
{"MOLECULE": "C[C@@H](OC(=O)Nc1ncsc1-c1ccc(-c2ccc(C3(C(=O)O)CC3)cc2)cc1)c1ccccc1Cl", "EXPERIMENTAL_READOUT": "pEC50", "RECORDED_RESULT": "6.30 to 7.30"}
{"MOLECULE": "C[C@@H](OC(=O)Nc1c(-c2ccc(-c3ccc(C4(C(=O)O)CC4)cc3)cc2F)cnn1C)c1ccccc1", "EXPERIMENTAL_READOUT": "pEC50", "RECORDED_RESULT": "> 7.30"}
{"MOLECULE": "Cc1nsc(-c2ccc(-c3ccc(C4(C(=O)O)CC4)cc3)cc2)c1NC(=O)O[C@@H](C)C1=C(Cl)CCCC1", "EXPERIMENTAL_READOUT": "pEC50", "RECORDED_RESULT": "6.30 to 7.30"}
